meta.source: the supplement of paper PMC11579375

# Lookup of reported area under the viability dose-response curve keyed by entry
system: 3E (embryonal-type hepatoblastoma organoid); assay: area under the viability dose-response curve (AUC) (AUC (arbitrary units, max 500 = no viability loss)); higher = less sensitive (higher viability); details: exposure time: 120 h; concentration range: 0.1 nM - 10 µM, 6 doses
Readout name: area under the viability dose-response curve

{"Compound": "C[C@H](NC(=O)c1c(N)nn2cccnc12)c1cc2cccc(C#Cc3cnn(C)c3)c2c(=O)n1-c1ccccc1", "Measured target": "3E", "Op": "=", "Reported result": 428}
{"Compound": "CC(C)c1c(-c2ccccc2)nc2c(C#N)c[nH]n2c1=O", "Measured target": "3E", "Op": ">", "Reported result": 500}
{"Compound": "CC[C@H](NC(=O)[C@H](C)NC)C(=O)N1C[C@@H](O)C[C@H]1Cc1c(-c2[nH]c3cc(F)ccc3c2C[C@@H]2C[C@H](O)CN2C(=O)[C@H](CC)NC(=O)[C@H](C)NC)[nH]c2cc(F)ccc12", "Measured target": "3E", "Op": "=", "Reported result": 237}
{"Compound": "CCCCCCCCCCCCCCCCCCOP(=O)([O-])OC1CC[N+](C)(C)CC1", "Measured target": "3E", "Op": ">", "Reported result": 500}
{"Compound": "N#CC1(c2ccc(NC(=O)c3cccnc3NCc3ccncc3)cc2)CCCC1", "Measured target": "3E", "Op": "=", "Reported result": 491}
{"Compound": "Cc1sc2c(c1C)C(c1ccc(Cl)cc1)=N[C@@H](CC(=O)NCCCN1CCN(C)CC1)c1nnc(C)n1-2 [(S)-JQ-35]", "Measured target": "3E", "Op": "=", "Reported result": 309}
{"Compound": "Cc1cn(-c2cc(NC(=O)c3ccc(C)c(Nc4nccc(-c5cccnc5)n4)c3)cc(C(F)(F)F)c2)cn1", "Measured target": "3E", "Op": "=", "Reported result": 489}
{"Compound": "Cc1ccc(NC(=O)c2ccc(CN3CCN(C)CC3)cc2)cc1Nc1nc(-c2cccnc2)cs1", "Measured target": "3E", "Op": "=", "Reported result": 483}
{"Compound": "O=c1nc(N2CCOCC2)oc2c(-c3cccc4c3sc3ccccc34)cccc12", "Measured target": "3E", "Op": "=", "Reported result": 486}
{"Compound": "Cn1nccc1Nc1nccc(-c2cc3c(s2)C(C)(C)N(CCN2CCOCC2)C3=O)n1", "Measured target": "3E", "Op": "=", "Reported result": 443}
{"Compound": "Cc1sc2c(c1C)C(c1ccc(Cl)cc1)=N[C@@H](CC(N)=O)c1nnc(C)n1-2", "Measured target": "3E", "Op": "=", "Reported result": 342}
{"Compound": "C[C@@H]1COC(Nc2ccc3ncnc(Nc4ccc(OCc5nccs5)c(Cl)c4)c3c2)=N1", "Measured target": "3E", "Op": "=", "Reported result": 485}
{"Compound": "CC[C@@]1(O)C(=O)OCc2c1cc1n(c2=O)Cc2cc3c(CN(C)C)c(O)ccc3nc2-1", "Measured target": "3E", "Op": "=", "Reported result": 257}
{"Compound": "S=c1nc[nH]c2nc[nH]c12", "Measured target": "3E", "Op": ">", "Reported result": 500}
{"Compound": "O=C(/C=C/c1cccc(S(=O)(=O)Nc2ccccc2)c1)NO", "Measured target": "3E", "Op": "=", "Reported result": 355}
{"Compound": "CC(C)C[C@H](NC(=O)[C@H](Cc1ccccc1)NC(=O)c1cnccn1)B(O)O", "Measured target": "3E", "Op": "=", "Reported result": 133}
{"Compound": "CCC(CC)(NC(=O)C(C)C)C(=O)N[C@@H](CCCN=C(N)N)C(=O)NC1(C(=O)NC(c2ccc(F)cc2)c2ccc(F)cc2)CCCC1", "Measured target": "3E", "Op": ">", "Reported result": 500}

----------
test system: 3E; assay: area under the viability dose-response curve (AUC) (AUC (arbitrary units, max 500 = no viability loss)); higher = less sensitive (higher viability); details: exposure time: 120 h; concentration range: 0.1 nM - 10 µM, 6 doses
Readout name: area under the viability dose-response curve

{"Compound": "CNC(=O)c1ccc(-c2cnc3ncc(Cc4ccc5ncccc5c4)n3n2)cc1F [Capmatinib]", "Op": ">", "Reported result": 500}
{"Compound": "CN/N=N/c1[nH]cnc1C(N)=O [MTIC]", "Op": ">", "Reported result": 500}
{"Compound": "Cc1c2oc3c(C)ccc(C(=O)N[C@@H]4C(=O)N[C@H](C(C)C)C(=O)N5CCC[C@H]5C(=O)N(C)CC(=O)N(C)[C@@H](C(C)C)C(=O)O[C@@H]4C)c3nc-2c(C(=O)N[C@@H]2C(=O)N[C@H](C(C)C)C(=O)N3CCC[C@H]3C(=O)N(C)CC(=O)N(C)[C@@H](C(C)C)C(=O)O[C@@H]2C)c(N)c1=O [Actinomycin D]", "Op": "=", "Reported result": 134}
{"Compound": "CCCS(=O)(=O)Nc1ccc(F)c(C(=O)c2c[nH]c3ncc(-c4ccc(Cl)cc4)cc23)c1F [Vemurafenib]", "Op": "=", "Reported result": 490}
{"Compound": "O=C(NC[C@H](O)CO)c1ccncc1Nc1ccc(I)cc1F [Pimasertib]", "Op": "=", "Reported result": 456}
{"Compound": "COc1cc(N2CCC(N3CCN(C)CC3)CC2)ccc1Nc1ncc(Cl)c(Nc2ccccc2P(C)(C)=O)n1 [Brigatinib]", "Op": "=", "Reported result": 349}
{"Compound": "COc1ccc(-c2nc(N3CCOCC3)c3sc(CN(C)c4ncc(C(=O)NO)cn4)cc3n2)cn1 [Fimepinostat]", "Op": "=", "Reported result": 161}

----------
test system: 3E; test: area under the viability dose-response curve (AUC) (AUC (arbitrary units, max 500 = no viability loss)); higher = less sensitive (higher viability); conditions: exposure time: 120 h; concentration range: 0.1 nM - 10 µM, 6 doses
Readout name: area under the viability dose-response curve

{"Item smiles": "Cc1cccc(-c2[nH]c(CNc3ccccc3F)nc2-c2ccc3ncnn3c2)n1", "Reported result": 419}
{"Item smiles": "COc1cc(Nc2ncc3c(n2)-c2ccc(Cl)cc2C(c2c(F)cccc2OC)=NC3)ccc1C(=O)O", "Reported result": 328}
{"Item smiles": "C[C@@H](Oc1cc(-n2cnc3ccc(CN4CCN(C)CC4)cc32)sc1C(N)=O)c1ccccc1C(F)(F)F", "Reported result": 246}
{"Item smiles": "COc1ncc(-c2nc3c(n2C(C)C)[C@H](c2ccc(Cl)cc2)N(c2cc(Cl)cn(C)c2=O)C3=O)c(OC)n1", "Reported result": 306}

----------
Items are presented alongside their recorded area under the viability dose-response curve.
tested on: 135F2 (fetal-II hepatoblastoma organoid with high liver markers); assay: area under the viability dose-response curve (AUC) (AUC (arbitrary units, max 500 = no viability loss)); higher = less sensitive (higher viability); settings: exposure time: 120 h; concentration range: 0.1 nM - 10 µM, 6 doses
Readout name: area under the viability dose-response curve

{"Item smiles": "C[C@]12C=CC(=O)C=C1CC[C@@H]1[C@@H]2[C@@H](O)C[C@@]2(C)[C@H]1CC[C@]2(O)C(=O)CO", "Measured target": "135F2", "Reported result": 475}
{"Item smiles": "C[C@H](NC(=O)c1c(N)nn2cccnc12)c1cc2cccc(C#Cc3cnn(C)c3)c2c(=O)n1-c1ccccc1", "Measured target": "135F2", "Reported result": "> 500"}
{"Item smiles": "C=CCNC1=C2C[C@@H](C)C[C@H](OC)[C@H](O)[C@@H](C)/C=C(\\C)[C@H](OC(N)=O)[C@@H](OC)/C=C\\C=C(/C)C(=O)NC(=CC1=O)C2=O", "Measured target": "135F2", "Reported result": 267}

----------
system: 13F2 (fetal-II hepatoblastoma organoid with high liver markers); assay: area under the viability dose-response curve (AUC) (AUC (arbitrary units, max 500 = no viability loss)); higher = less sensitive (higher viability); conditions: exposure time: 120 h; concentration range: 0.1 nM - 10 µM, 6 doses
Readout name: area under the viability dose-response curve

{"Item smiles": "C=CCNC1=C2C[C@@H](C)C[C@H](OC)[C@H](O)[C@@H](C)/C=C(\\C)[C@H](OC(N)=O)[C@@H](OC)/C=C\\C=C(/C)C(=O)NC(=CC1=O)C2=O", "Reported result": 245}
{"Item smiles": "CCc1c2c(nc3ccc(O)cc13)-c1cc3c(c(=O)n1C2)COC(=O)[C@]3(O)CC", "Reported result": 162}
{"Item smiles": "CC[C@]1(O)C[C@@H]2CN(CCc3c([nH]c4ccccc34)[C@@](C(=O)OC)(c3cc4c(cc3OC)N(C)[C@H]3[C@@](O)(C(N)=O)[C@H](O)[C@]5(CC)C=CCN6CC[C@]43[C@@H]65)C2)C1", "Reported result": 246}
{"Item smiles": "CC[C@H](Nc1ncnc2[nH]cnc12)c1nc2cccc(F)c2c(=O)n1-c1ccccc1", "Reported result": 496}
{"Item smiles": "COc1cc2/c(=N/c3ccc(Br)cc3F)nc[nH]c2cc1OCC1CCN(C)CC1", "Reported result": 373}
{"Item smiles": "CCn1cc(-c2cccc(C(F)(F)F)c2)c2sc(C(=N)NC3CCS(=O)(=O)CC3)cc2c1=O", "Reported result": 435}
